A compilation of published pKi results with Thymidylate synthase (Homo sapiens, UniProt P04818).
Sequence (P04818 whole entry): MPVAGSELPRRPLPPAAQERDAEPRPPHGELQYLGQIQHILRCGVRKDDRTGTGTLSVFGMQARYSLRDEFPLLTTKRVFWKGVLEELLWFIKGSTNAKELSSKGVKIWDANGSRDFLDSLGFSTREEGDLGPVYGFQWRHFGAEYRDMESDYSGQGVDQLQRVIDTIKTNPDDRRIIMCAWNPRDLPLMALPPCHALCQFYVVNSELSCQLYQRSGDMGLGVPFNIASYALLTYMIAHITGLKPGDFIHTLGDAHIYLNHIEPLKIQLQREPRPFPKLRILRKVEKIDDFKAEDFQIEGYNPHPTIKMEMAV
Please note pKi is a logarithmic value: minus log10 of concentration in mol/L. Answer with that number alone.

These recorded examples may help you get a feel for the data.
[
  {
    "Molecule": "C#CCN(Cc1ccc2nc(C)nc(O)c2c1)c1ccc(C(=O)NC(CCC(=O)O)C(=O)O)cc1 (stereo not given)",
    "pKi": 8.07
  },
  {
    "Molecule": "CN(Cc1nc2cc(C(F)(F)F)ccc2nc1-c1ccccc1)c1ccc(F)c(F)c1",
    "pKi": 6.57
  },
  {
    "Molecule": "Cc1ccc2c3c(cccc13)C(=O)CC2",
    "pKi": 5.51
  },
  {
    "Molecule": "O=C1OC(c2cc(Cl)c(O)c(Cl)c2)(c2cc(Cl)c(O)c(Cl)c2)c2cccc3cccc1c23",
    "pKi": 5.24
  },
  {
    "Molecule": "Clc1nc2ccccc2n2c(-c3ccccc3)nnc12",
    "pKi": 5.00
  },
  {
    "Molecule": "C#CCN(Cc1ccc2nc(N)[nH]c(=O)c2c1)c1ccc(C(=O)NC(CCC(=O)NC(CCC(=O)NC(CCC(=O)NC(CCC(=O)NC(CCC(=O)O)C(=O)O)C(=O)O)C(=O)O)C(=O)O)C(=O)O)cc1 (stereo not given)",
    "pKi": 10.38
  },
  {
    "Molecule": "NC(=O)c1ccc(-c2cn([C@H]3C[C@H](O)[C@@H](COP(=O)(O)O)O3)c(=O)[nH]c2=O)cc1",
    "pKi": 3.92
  },
  {
    "Molecule": "Cc1cccc2c1C(=O)N(c1ccc(-n3ccnc3)cc1)C2=O",
    "pKi": 3.69
  }
]

May I ask what pKi has been recorded for COC(=O)c1ccc(-c2cn([C@H]3C[C@H](O)[C@@H](COP(=O)(O)O)O3)c(=O)[nH]c2=O)cc1 ? 3.99

Proceed to O=C1Oc2cccc3cccc1c23 5.38

Proceed to O=C(CC1S/C(=N\N=C\c2ccccc2O)N=C1O)Nc1cccc(C(F)(F)F)c1 (stereo not given) 5.60

Proceed to C#CCN(Cc1nc2cc(C(F)(F)F)ccc2nc1-c1ccccc1)c1cc(OC)c(OC)c(OC)c1 5.30

Proceed to CN(Cc1ccc(S(=O)(=O)N2CCOCC2)cc1)c1ccc2c3c(cccc13)C(N)=N2 8.70

Proceed to O=c1ccn([C@@H]2O[C@H](COP(=O)(O)O)[C@@H](O)[C@@H]2F)c(=O)[nH]1 4.99
